Data provenance is PubChem BioAssay AID602293.

# assay-summary: qHTS for antagonists of the Thyroid Stimulation Hormone Receptor: Hit Validation in HTRF Activity in a Luteinizing Hormone Receptor Cell Line; also: potency is read from the fitted curve at half-maximal effect
# stated-conditions: LHR-expressing cell line, cAMP HTRF, antagonist mode; series mostly up to 58 µM
About 30 (2%) of roughly 1,300 compounds were called active. Roughly 10% stayed inconclusive and do not appear here. This excerpt belongs to a sample that is enriched for actives.
measured-quantity: Potency

Use the examples below as a reference point.
>  <compound>
Cc1ccc(-c2cc(-c3ccccc3)cc(-c3ccccc3)[n+]2-c2ccccc2)cc1

>  <value-measured>
42.6 µM (active)

$$$$
>  <compound>
COc1ccc(-[n+]2c(-c3ccccc3)cc(-c3ccc(C)cc3)cc2-c2ccccc2)cc1

>  <value-measured>
inactive

$$$$
>  <compound>
C[C@]12CC[C@H]3C(CCC4(O)CC(O)CC[C@]34C=O)C1=CC[C@H]2c1ccc(=O)oc1 (stereo partly drawn)

>  <value-measured>
inactive

$$$$
>  <compound>
CC(=O)c1ccc2c(c1)C1C(Cl)C(Sc3ccccc3[N+](=O)[O-])CC1C(C(=O)O)N2 (stereo not drawn)

>  <value-measured>
inactive

$$$$
>  <compound>
CN(C)CC1Oc2ccccc2OC1(O)c1ccccc1 (stereo not drawn)

>  <value-measured>
inactive

$$$$

# input Requested field: Potency. Item: COc1cc2c(cc1/C=C/[N+](=O)[O-])OCO2
# output inactive

# input What would you report for Oc1ccc(-[n+]2c(-c3ccccc3)cc(-c3ccccc3)cc2-c2ccccc2)cc1 ?
# output 39.8 µM (active)

# input Try this compound too: C[C@H]1O[C@@H](OC2CC[C@]3(C=O)[C@H]4CC[C@]5(C)[C@@H](C6=CC(=O)OC6)CC[C@]5(O)[C@@H]4CC[C@]3(O)C2)CC2OC(C)(C)OC21 (stereo partly drawn)
# output inactive
